Multi-source literature compilation: pIC50 on Cathepsin D (Homo sapiens, UniProt P07339).
pIC50: −log10 of the molar value.
measureName: pIC50

Known results for compounds:
>>> print(df.to_string())
                                 smilesrepr                        experimentaltarget  recordednumber
0  C#CCOc1cnc(/C(F)=C/c2ccc(F)c([C@@]3(C)N=C(N)N(C)S(=O)(=O)C34CC4)c2)cn1  Cathepsin D (Homo sapiens, UniProt P07339)            3.90
1  C[C@@]1(c2cc(/C=C(\F)c3ccc(C#N)cn3)ccc2F)CS(=O)(=O)C2(CCC2)C(N)=N1  Cathepsin D (Homo sapiens, UniProt P07339)            4.02
2  COc1cnc(C(=O)Nc2ccc3c(c2)[C@@]2(CCOC(N)=N2)c2cc(-c4cncc(F)c4)nc(F)c2O3)cn1  Cathepsin D (Homo sapiens, UniProt P07339)            3.40
3  O=C(COc1cccc(Cl)c1)N[C@@H](Cc1ccccc1)[C@@H](O)CN(CCc1ccc2c(c1)OCO2)C(=O)CCN1C(=O)c2ccccc2C1=O  Cathepsin D (Homo sapiens, UniProt P07339)            7.70
4  C[C@]1(c2cc(NC(=O)c3ccc(C#N)cn3)ccc2F)N=C(N)O[C@@H]2CC(F)(F)C[C@@H]21  Cathepsin D (Homo sapiens, UniProt P07339)            3.92
5  CN1C(N)=N[C@](C)(c2cc(/C=C(\F)c3cnc(OCC4COC4)cn3)ccc2F)CS1(=O)=O  Cathepsin D (Homo sapiens, UniProt P07339)            4.37
6  NC1=N[C@@]2(CCO1)c1cc(NC(=O)c3ccc(Cl)cn3)ccc1Oc1ncc(C3=CCOCC3)cc12  Cathepsin D (Homo sapiens, UniProt P07339)            3.47
7  CC1(C)C(N)=N[C@](C)(c2cc(/C=C(\F)c3cnc(O)cn3)ccc2F)CS1(=O)=O  Cathepsin D (Homo sapiens, UniProt P07339)            3.75

(a) CN1C(N)=N[C@](C)(c2cc(/C=C(\F)c3cc4c(cn3)OCO4)ccc2F)CS1(=O)=O
(b) Cc1nnc(COc2cnc(/C(F)=C/c3ccc(F)c([C@]4(C)CS(=O)(=O)C(C)(C)C(N)=N4)c3)cn2)o1
(c) CC1(C)C(N)=N[C@](C)(c2cc(/C=C(\F)c3ccc(C#N)cn3)cnc2F)CS1(=O)=O
(d) CN1C(N)=N[C@](C)(c2cc(/C=C(\F)c3cnc(C#N)cn3)ccc2F)C2(CC2)S1(=O)=O
(e) CCOc1cccnc1Nc1ccc2c(c1)[C@@]1(CCOC(N)=N1)c1cc(OC)cc(F)c1O2
Kindly order the items shown according to pIC50, from the highest value down. Use the labels to give the ranking in the order requested.
d, c, b, a, e
(d: 4.39, c: 4.09, b: 3.83, a: 3.63, e: 3.40)

(a) CN1C(N)=N[C@](C)(c2cc(/C=C(\F)c3cnc(OCC4CC4)cn3)ccc2F)CS1(=O)=O
(b) CN1C(N)=N[C@](C)(c2cc(/C=C(\F)c3cnc(C4CC4)cn3)ccc2F)CS1(=O)=O
Problem: Given the entries a and b , determine which has the lower reported pIC50. Give the label of your selection.
b
(b: 4.16, a: 4.52)

(a) CN1C(N)=N[C@](C)(c2cc(/C=C(/F)c3ccc(Cl)cn3)cc(F)c2F)CS1(=O)=O
(b) COc1ccc(C(=O)Nc2ccc3c(c2)[C@@]2(CCSC(N)=N2)c2cc(-c4ccnc(F)c4)nc(F)c2O3)nc1
(c) N#Cc1ccc(C(=O)Nc2ccc3c(c2)[C@@]2(CCOC(N)=N2)c2cc(-c4ccnc(F)c4)cc(F)c2O3)nc1
(d) C#C[C@H](C)Oc1cnc(/C(F)=C/c2ccc(F)c([C@]3(C)CS(=O)(=O)N(C)C(N)=N3)c2)cn1
Which order do these items take when sorted by rising pIC50? List them. Answer format: the labels, ordered as requested.
c, b, a, d

(P) CC1(C)C(N)=N[C@](C)(c2cc(/C=C/c3ccc(Cl)cc3)ccc2F)CS1(=O)=O
(Q) CC(F)(F)c1cnc(C(=O)Nc2ccc(F)c([C@@]3(C)N=C(N)O[C@@H]4CCC(F)(F)[C@@H]43)c2)cn1
So which one has the bigger pIC50 here, P or Q ? Reply with the label of the item you choose.
P
(P: 4.41, Q: 3.74)
